target-desc: hEg5-367H (R119L) (Homo sapiens, UniProt P52732, R119L)
Sequence (P52732 1-367 R119L): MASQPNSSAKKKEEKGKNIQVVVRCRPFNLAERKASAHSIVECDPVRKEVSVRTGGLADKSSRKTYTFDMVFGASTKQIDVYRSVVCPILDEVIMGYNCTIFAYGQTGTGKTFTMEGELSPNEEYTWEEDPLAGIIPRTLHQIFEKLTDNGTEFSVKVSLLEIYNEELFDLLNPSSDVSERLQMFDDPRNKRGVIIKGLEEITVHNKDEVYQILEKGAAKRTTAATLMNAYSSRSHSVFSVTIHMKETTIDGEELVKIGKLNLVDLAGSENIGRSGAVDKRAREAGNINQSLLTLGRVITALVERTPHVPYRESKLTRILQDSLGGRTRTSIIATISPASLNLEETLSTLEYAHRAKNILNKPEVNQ
protocol-text: ATP hydrolysis by Eg5 motor domain mutant R119L
Assay type: biochemical
condition-summary: Figure 4B; legend: basal ATP hydrolysis; read-out: IC50(μM) of monastrol, (R119L)
metric: IC50 (µM)
Express it in µM; write the number only.

Entry CCOC(=O)C1=C(C)NC(=S)NC1c1cccc(O)c1 (stereo not shown) [Monastrol] — recorded IC50 = 17

----------
target-desc: hEg5-367H (Homo sapiens)
Construct: motor domain (amino acid residues 1–367) of human Eg5; His6 (C); made in house
Sequence (P52732 1-367): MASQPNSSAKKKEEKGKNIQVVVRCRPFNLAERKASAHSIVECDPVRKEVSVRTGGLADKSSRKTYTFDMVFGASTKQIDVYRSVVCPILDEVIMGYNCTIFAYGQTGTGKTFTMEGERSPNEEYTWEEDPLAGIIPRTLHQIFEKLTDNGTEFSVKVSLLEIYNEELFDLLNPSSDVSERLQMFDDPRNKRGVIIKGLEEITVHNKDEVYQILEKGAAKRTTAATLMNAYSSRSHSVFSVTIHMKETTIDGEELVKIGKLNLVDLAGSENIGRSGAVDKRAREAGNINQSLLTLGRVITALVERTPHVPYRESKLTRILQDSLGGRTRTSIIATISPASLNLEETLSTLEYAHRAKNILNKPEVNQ
protocol-text: ATP hydrolysis by recombinant human Eg5 motor domain (NADH-enzyme coupled assay)
Type: biochemical
metric: pIC50
Friendly reminder that pIC50 comes from taking -log10 of the concentration in mol/L.

Entry CCOC(=O)C1=C(C)N(C)C(=S)NC1c1cccc(O)c1 (stereo not shown) , pIC50 reported as 5.48

// sample CC(=O)C1=C(C)NC(=S)NC1c1cccc(O)c1 (stereo not shown) , its pIC50 was 4.60

# pIC50 (compound: CCOC(=O)C1=C(C)NC(=S)N[C@H]1c1cccc(O)c1 [(S)-monastrol, reference compound] ) is 5.21

Lab book: pIC50 of CC1=C(C(=O)OCc2ccccc2)C(c2cccc(O)c2)NC(=S)N1 (stereo not shown) noted as 4.68

Numbers sourced from paper PMC1448180.
